The reported numbers originate from patent US20120164137A1.

# assayed target: Human FRA on IGROV-1 human ovarian adenocarcinoma cells (human, UniProt P15328 25-234)
# Sequence (P15328 25-234 limits assumed): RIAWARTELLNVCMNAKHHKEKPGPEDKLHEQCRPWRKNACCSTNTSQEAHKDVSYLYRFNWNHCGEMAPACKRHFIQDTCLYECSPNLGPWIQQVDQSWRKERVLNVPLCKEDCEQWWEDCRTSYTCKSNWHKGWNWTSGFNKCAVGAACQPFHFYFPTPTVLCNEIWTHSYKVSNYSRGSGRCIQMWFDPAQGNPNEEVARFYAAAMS
# procedure text: cell-based or functional assay
metric name: INTL % (150 min) (%)
Response body: numeric value in %, unit text excluded.

Below: 2 binders and their reported INTL % (150 min).
binder	INTL % (150 min), %
MORAb-003 anti-FRA antibody, lot NB859-25 (harvested 14 days after initiation of culture) (antibody, human IgG1, kappa, V domains shown, N-linked neutral glycans at Asn299 in SEQ ID NO: 5, also called Day 14 harvest; positive control (round 3)) VH: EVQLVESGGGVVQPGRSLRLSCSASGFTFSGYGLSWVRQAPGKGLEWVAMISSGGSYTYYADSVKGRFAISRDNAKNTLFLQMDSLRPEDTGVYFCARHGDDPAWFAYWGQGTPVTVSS VL: DIQLTQSPSSLSASVGDRVTITCSVSSSISSNNLHWYQQKPGKAPKPWIYGTSNLASGVPSRFSGSGSGTDYTFTISSLQPEDIATYYCQQWSSYPYMYTFGQGTKVEIKR	61
MORAb-003 anti-FRA antibody, lot NB809-69 (10 mM Na butyrate; harvested 13 days after initiation of culture) (antibody, human IgG1, kappa, V domains shown, N-linked neutral glycans at Asn299 in SEQ ID NO: 5) VH: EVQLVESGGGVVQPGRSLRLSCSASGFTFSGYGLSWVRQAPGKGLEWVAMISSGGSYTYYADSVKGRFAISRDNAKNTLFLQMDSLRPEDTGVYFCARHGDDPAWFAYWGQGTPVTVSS VL: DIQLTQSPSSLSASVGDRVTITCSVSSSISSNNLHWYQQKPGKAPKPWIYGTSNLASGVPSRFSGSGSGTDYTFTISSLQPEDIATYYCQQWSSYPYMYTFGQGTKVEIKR	56

Could you now consider this next binder?
Inquiry: Form field: reported INTL % (150 min) of MORAb-003 anti-FRA antibody, lot NB809-65 (positive control; harvested 13 days after initiation of culture) (antibody, human IgG1, kappa, V domains shown, N-linked neutral glycans at Asn299 in SEQ ID NO: 5, also called Pos. ctl; positive control (round 2)) VH: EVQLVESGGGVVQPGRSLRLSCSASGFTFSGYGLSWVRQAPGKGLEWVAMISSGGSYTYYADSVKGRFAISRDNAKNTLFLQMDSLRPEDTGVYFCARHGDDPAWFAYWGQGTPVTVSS VL: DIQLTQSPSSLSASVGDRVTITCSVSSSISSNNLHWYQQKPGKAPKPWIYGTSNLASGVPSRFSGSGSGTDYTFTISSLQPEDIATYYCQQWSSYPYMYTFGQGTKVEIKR
Reply text: 52
